# measured.target: T1, Human B7-H4-Fc (Human B7H4 ECD, Fc_6His) (human)
# T1 construct: also called FcHis6 tagged human B7-H4
# T1 sequence (Q7Z7D3 whole entry, looked up): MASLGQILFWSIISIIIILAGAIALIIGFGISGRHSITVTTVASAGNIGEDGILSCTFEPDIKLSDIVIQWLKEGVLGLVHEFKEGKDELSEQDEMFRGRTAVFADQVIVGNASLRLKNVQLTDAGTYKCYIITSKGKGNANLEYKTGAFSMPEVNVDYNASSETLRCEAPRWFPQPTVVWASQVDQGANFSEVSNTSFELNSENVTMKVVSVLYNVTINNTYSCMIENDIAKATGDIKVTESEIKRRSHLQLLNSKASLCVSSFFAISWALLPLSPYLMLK
# protocol.text: HTRF binding, murine IgG1
Measured EC50 accompanies every entry in the list below.
Numeric answer only, unit pM assumed.

ZY0EP0-C07 murine IgG1 (antibody, V domains shown, also called ZY0EPO-C07) VH: QVQLVESGGVLVKPGGSLRLSCAASGFTLSDYYMSWIRQAPGMGLEWVSYISSSGSTIYYTDSVKGRFTISRDSAKNSLYLQMNSLRAEDTAVYYCARDGVGFDYWGQGTLVTVSS VL: EIVLTQSPGTLSLFPGERATLSCRASQSVSSSYLAWYQQKPGQSPRLLIYAASSRATGIPDRFSGSGSGTDFTLTISRLEPEDFAVYYCQQYGSSPLYTFGQGTKLEIK | 950
ZY0EPQ-E02 murine IgG1 (antibody, V domains shown) VH: QVQLQQWGAGLLKPSETLSLTCAVYGGSFSGYYWNWIRQPPGKGLEWIGEINHSGSTNYNPSLKSRVTILVDTSKNQFSLKLSSVTAADTAVYYCARNLYNWNLDSWGQGTLVTVSS VL: DIQMTQSPSSLSASVGDRVTITCRASQGIRNDLGWYQQKPGRAPKRLIYVASSLQSGVPSRFSGSGSGTEFTLTISSLQPEDFATYYCLQHNSYPRTFGQGTKVEIK | 380
ZY0EO5-E07 murine IgG1 (antibody, V domains shown, also called ZY0E05-E07; E05-E07) VH: QVQLQESGPGLVKPSQTLSLTCTVSGGSISSGGYYWSWIRQHPGKGLEWIGNIYYSGSTYYNPSLKSRVTISVDTSKNQFSLKLSSVTAADTAVYYCAREKALASVIPSGYENYYVVDVWGQGTTVTVSS VL: DIQLTQSPSFLSASVGGRVTITCWASQGIAGYLAWYQQKPGKAPKLLIYAASTLQSGVPSRFSGSGSGTEFTLTISSLQPEDFATYYCQHLNSYPLTFGGGTKVEIK | 680

From here, focus on the item given below.
For the binder shown here, ZY0EQD-E02 murine IgG1 (antibody, V domains shown) VH: QVQLQQWGAGLLKPSETLSLTCAVYGGSFSGYYWNWIRQPPGKGLEWIGEINHSGSTSYNPSLKSRVTISVDTSKNQFSLKLSSVTAADTAVYYCARVLYNWNVDSWGQGTLVTVSS VL: DIQMTQSPSSLSASVGDRVTITCRASQDIRNDVGWYQQKPGKAPKRLIYAASRLQSGVPSRFSGSGSGTEFTLTISSLQPEDFATYYCLQHNSYPRTFGQGTKVEIK , give the reported EC50. 220
